Biological target: Salicyl-AMP ligase / salicyl-S-ArCP synthetase (Mycobacterium tuberculosis, UniProt P71716)
Sequence (P71716 whole entry): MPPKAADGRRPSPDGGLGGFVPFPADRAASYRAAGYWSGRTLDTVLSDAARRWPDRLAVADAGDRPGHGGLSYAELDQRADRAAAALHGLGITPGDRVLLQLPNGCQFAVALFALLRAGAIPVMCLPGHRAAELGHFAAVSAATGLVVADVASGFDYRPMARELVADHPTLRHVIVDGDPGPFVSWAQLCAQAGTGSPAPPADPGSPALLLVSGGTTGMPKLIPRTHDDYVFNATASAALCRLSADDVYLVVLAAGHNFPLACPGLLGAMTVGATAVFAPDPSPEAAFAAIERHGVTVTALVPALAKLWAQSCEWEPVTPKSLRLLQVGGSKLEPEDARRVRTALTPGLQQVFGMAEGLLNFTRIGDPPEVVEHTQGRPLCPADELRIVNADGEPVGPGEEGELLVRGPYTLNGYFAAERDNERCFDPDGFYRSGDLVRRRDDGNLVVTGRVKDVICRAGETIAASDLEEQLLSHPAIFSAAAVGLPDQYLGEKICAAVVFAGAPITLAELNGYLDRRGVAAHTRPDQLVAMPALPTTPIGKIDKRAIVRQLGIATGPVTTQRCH
Test: Inhibition of Mycobacterium tuberculosis recombinant MbtA expressed in Escherichia coli by ATP/PPi exchange assay
Conditions: read-out: Ki app
Each record here notes measured Ki.
ENDPOINT NAME: Ki (nM)

- Nc1ncnc2c1ncn2[C@@H]1O[C@H](COS(=O)(=O)NC(=O)c2cccnc2F)[C@@H](O)[C@H]1O: 2900
- Nc1ncnc2c1ncn2[C@@H]1O[C@H](COS(=O)(=O)NC(=O)c2cc(Cl)ccc2O)[C@@H](O)[C@H]1O: 20
- Cc1ccc(C(=O)NS(=O)(=O)OC[C@H]2O[C@@H](n3cnc4c(N)ncnc43)[C@H](O)[C@@H]2O)c(O)c1: 14
- Nc1ncnc2c1ncn2[C@@H]1O[C@H](COS(=O)(=O)NC(=O)C2CCCC2)[C@@H](O)[C@H]1O: 49800
- Nc1ccccc1C(=O)NS(=O)(=O)OC[C@H]1O[C@@H](n2cnc3c(N)ncnc32)[C@H](O)[C@@H]1O: 770
